Experiment: Nuclear factor erythroid 2-related factor 2/antioxidant responsive element (Nrf2/ARE) small molecule agonists: luciferase reporter gene qHTS assay in human keratinocytes (AID 1919969); further: nearly all actives have a fitted effect of over 35% in size
Conditions: KeratinoSens HaCaT ARE-luciferase, luminescence, 24 h; series mostly up to 92.4 µM
Results filed as inconclusive are left out. Calls of active or inactive are those of the source. The call rests on the fitted dose curve.
One label from this list, please: TRUE = active, FALSE = inactive

Some solved entries appear below for comparison.
CCCCCCCCCCCCCCCCCC[N+](C)(C)C :: FALSE
CCCC(=O)O[C@]1(C(=O)CO)CC[C@H]2[C@@H]3CCC4=CC(=O)CC[C@]4(C)[C@H]3[C@@H](O)C[C@@]21C :: FALSE
O=C(Nc1cccc([N+](=O)[O-])c1)c1cc2ccccc2cc1O :: TRUE
O=c1[nH]c2ccccc2n1CCCN1CCN(C(c2ccccc2)c2ccccc2)CC1 :: FALSE
CN(C)C(=O)Nc1ccccc1 :: FALSE
CC(C)CCC(=O)CCC(C)C :: FALSE
CCCC1C(CC)=CC(CC)=CN1c1ccccc1 (stereo not given) :: TRUE
CCCCCC1Nc2cc(C(F)(F)F)c(S(N)(=O)=O)cc2S(=O)(=O)N1 (stereo not given) :: FALSE
CCN(CC)c1ccc2c(c1)Oc1cc(N(CC)CC)ccc1C21OC(=O)c2ccccc21 :: FALSE
C[C@@H](CN(C)C)CN1c2ccccc2Sc2ccccc21 :: FALSE

Lab log entry: OC(CCN1CCCCC1)(c1ccccc1)C1CC2C=CC1C2 (stereo not given) — outcome as called in the assay?
FALSE

Lab log entry: CCCNC(C)C(=O)Nc1c(C)csc1C(=O)OC (stereo not given) — outcome as called in the assay?
FALSE

----------
Assay: Nuclear factor erythroid 2-related factor 2/antioxidant responsive element (Nrf2/ARE) small molecule agonists: qHTS cell viability counter screen in human keratinocytes (AID 1919968); further: nearly all actives have a fitted effect of over 55% in size; further: potency means the concentration at half of the fitted maximal effect
Settings: KeratinoSens HaCaT ARE cells viability, CellTiter-Fluor, 24 h; series mostly up to 92.4 µM
Records with an inconclusive call do not appear. Active and inactive are the calls of the source. The call rests on the fitted dose curve; in most records, active means well fitted cell-killing curve with a large enough effect in the repeat runs; inconclusive means weak or mixed curves, or effect the other way; inactive means flat fitted curve, though single readings scatter.
reported-metric: Potency

# annotated cases, reported Potency shown
C/C=C/C=C/CO :: inactive
COc1cc(NS(=O)(=O)c2ccc(N)cc2)nc(C)n1 :: inactive
Nc1nc(-c2ccccc2)cs1 :: inactive
Oc1ccccc1-c1nnco1 :: inactive
CC1=CC(=O)/C(=C(/C)O)C(=O)O1 :: inactive

Hi! Can you tell me Potency for each of these compounds?
1. CCN(CCCc1ccccc1)CCCc1ccccc1
2. O=C=NC1CCC(CC2CCC(N=C=O)CC2)CC1 (configuration not stated)
3. NCc1cccc(C2CCN(C(=O)c3ccc(C#Cc4ccccc4F)o3)CC2)c1
4. O=C1Cc2ccccc2N1c1c(Cl)cccc1Cl

1: inactive; 2: 12.2 µM (active); 3: 54.5 µM (active); 4: inactive

Hi! Can you tell me Potency for each of these compounds?
1. CCCCCCCCCCCCOCCOCCOCCOCCOCCOCCOCCOCCOCCO
2. c1cc[c]([Bi]([c]2ccccc2)[c]2ccccc2)cc1
3. CCCCCCCCCC(C)C=O (configuration not stated)
4. O=c1oc2cc(O)ccc2c2oc3cc(O)ccc3c12

1: 29.8 µM (active); 2: inactive; 3: inactive; 4: inactive

Hi! Can you tell me Potency for each of these compounds?
1. CCCCOc1ccc(CC(=O)NO)cc1
2. O=C(NS(=O)(=O)/C=C/c1cccs1)c1ccc(F)cc1Br
3. CCOC(=O)c1ccc(C2CCC(NC[C@H](O)COc3ccc(O)c(NS(C)(=O)=O)c3)CC2)cc1 (some centres not stated)
4. N[C@@H](CS)C(=O)O
5. CC(=O)NCCCS(=O)(=O)O

1. inactive
2. inactive
3. 56.4 µM (active)
4. inactive
5. inactive
